A set of molecules tested on BaF3-tel-PDGFRβ (stably expressing PDGFRβ kinase), with measured GI50:

Some solved cases for reference:
> print(dat)
                                   molecule       val
1  Cc1ccc(NC(=O)c2cncc(C(F)(F)F)c2)cc1-n1cc(-c2cncc(N3CC4(COC4)C3)c2)cn1   < 10 nM
2  Cc1ccc(NC(=O)c2ccnc(C(F)(F)F)c2)cc1-n1cc(-c2cncc(N3CCN(C)CC3)c2)nn1   < 10 nM
3  Cc1ccc(NC(=O)c2cc(C(F)(F)F)ccn2)cc1-n1cc(-c2cncc(N3CCN(C)CC3)c2)nn1   < 10 nM
4  CN1CCN(c2cncc(-c3cn(-c4cc(NC(=O)c5cc(C(F)(F)F)ccn5)ccc4F)nn3)c2)CC1   < 10 nM
5  Cc1ccc(NC(=O)c2cc(C(F)(F)F)ccn2)cc1-n1cc(-c2cncc(N3CCN(C)CC3)c2)cn1  < 1.5 nM

Ask: What reported GI50 corresponds to Cc1ccc(NC(=O)c2ccnc(C(F)(F)F)c2)cc1-n1cc(-c2cncc(N3CCN(C)CC3)c2)cn1 on BaF3-tel-PDGFRβ (stably expressing PDGFRβ kinase)?
Reply: 40 nM

Ask: What reported GI50 corresponds to Cc1ccc(NC(=O)c2cccc(F)n2)cc1-n1cc(-c2cncc(N3CCN(C)CC3)c2)cn1 on BaF3-tel-PDGFRβ (stably expressing PDGFRβ kinase)?
Reply: < 1.5 nM

Ask: What reported GI50 corresponds to Cc1ccc(NC(=O)c2cccc(C(F)(F)F)n2)cc1-n1cc(-c2cnccc2OCC2CCCO2)cn1 (stereo not drawn) on BaF3-tel-PDGFRβ (stably expressing PDGFRβ kinase)?
Reply: 1.3 nM

Ask: What reported GI50 corresponds to CN1CCN(c2cncc(-c3cn(-c4cc(NC(=O)c5cccc(Cl)n5)ccc4F)nn3)c2)CC1 on BaF3-tel-PDGFRβ (stably expressing PDGFRβ kinase)?
Reply: < 10 nM

Ask: What reported GI50 corresponds to Cc1ccc(NC(=O)c2cccc(Cl)n2)cc1-n1cc(-c2cncc(N3CCN(C)CC3)c2)cn1 on BaF3-tel-PDGFRβ (stably expressing PDGFRβ kinase)?
Reply: < 1.5 nM

Ask: What reported GI50 corresponds to CN1CCN(c2cncc(-c3cn(-c4cc(NC(=O)c5cccc(F)n5)ccc4F)nn3)c2)CC1 on BaF3-tel-PDGFRβ (stably expressing PDGFRβ kinase)?
Reply: < 10 nM

Ask: What reported GI50 corresponds to Cc1ccc(NC(=O)c2ccnc(C(F)(F)F)c2)cc1-n1cc(-c2cncc(OC3COC3)c2)cn1 on BaF3-tel-PDGFRβ (stably expressing PDGFRβ kinase)?
Reply: 1 nM

Ask: What reported GI50 corresponds to Cc1ccc(NC(=O)c2ccnc(C(F)(F)F)c2)cc1-n1cc(-c2cncc(N3CC4(COC4)C3)c2)nn1 on BaF3-tel-PDGFRβ (stably expressing PDGFRβ kinase)?
Reply: < 10 nM

Ask: What reported GI50 corresponds to Cc1ccc(NC(=O)c2cccc(F)n2)cc1-n1cc(-c2cncc(N3CC4(COC4)C3)c2)cn1 on BaF3-tel-PDGFRβ (stably expressing PDGFRβ kinase)?
Reply: < 10 nM

Ask: What reported GI50 corresponds to Cc1ccc(NC(=O)c2cncc(C(F)(F)F)c2)cc1-n1cc(-c2cncc(N3CCN(C)CC3)c2)nn1 on BaF3-tel-PDGFRβ (stably expressing PDGFRβ kinase)?
Reply: < 10 nM
